target: human 11β-HSD1 (Homo sapiens); construct: the full-length cDNAs of human or marine 11β-HSD1 and 11β-HSD2 were isolated from the cDNA libraries; made in house; host or cells: HEK-293 (stably transfected, pcDNA3); microsomal fraction; test: Inhibition of human 11β-HSD1, SPA with microsomes from transfected HEK-293 cells; assay type: biochemical; details: microsomes, NADPH, [3H]cortisone; n = 2
Sequence (P28845 whole entry): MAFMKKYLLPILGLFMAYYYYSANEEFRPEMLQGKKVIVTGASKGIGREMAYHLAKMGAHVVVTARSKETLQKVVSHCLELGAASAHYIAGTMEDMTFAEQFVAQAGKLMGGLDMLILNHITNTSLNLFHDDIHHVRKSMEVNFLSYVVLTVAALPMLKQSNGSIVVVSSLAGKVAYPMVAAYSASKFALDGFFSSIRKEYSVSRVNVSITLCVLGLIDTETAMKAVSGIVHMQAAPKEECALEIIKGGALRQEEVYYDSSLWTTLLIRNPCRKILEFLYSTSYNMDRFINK
The following compounds are listed with their measured pIC50 values.
Recall that pIC50 is obtained by taking minus log10 of the concentration measured in molar.

# count of solved cases: 5
C=C(CC[C@](C)(O)[C@@H]1CC[C@]2(C)C3CCC4C(C)(C)[C@@H](O)CC[C@]4(C)C3CC[C@@]12C)C(C)C (stereo partly drawn) [Compound 1, Euphane-3β,20-dihydroxy-24-ene]: 7.46
CC(C)=CCC[C@@H](C)[C@@H]1CC[C@]2(C)C3=C(CC[C@@]12C)[C@@]1(C)CC[C@H](O)C(C)(C)[C@@H]1CC3: 7.79
C[C@H](C/C=C/C(C)(C)O)[C@@H]1CC[C@]2(C)C3=C(CC[C@@]12C)[C@@]1(C)CC[C@H](O)C(C)(C)C1CC3 (stereo partly drawn) [Compound 6, (20R,23E)-Eupha-8,23-diene-3β,25-diol]: 7.80
C=C(C)[C@@H](O)CC[C@@H](C)[C@@H]1CC[C@]2(C)C3=C(CC[C@@]12C)[C@@]1(C)CC[C@H](O)C(C)(C)C1CC3 (stereo partly drawn) [Compound 5, (24R)-Eupha-8,25-diene-3β,24-diol]: 7.58
CC(C)=CCCC(C)C1CCC2(C)C3=C(CCC12C)C1(C)CCC(O)C(C)(C)C1CC3=O (stereo not drawn): 8.55

We now examine a further compound.
Which pIC50 reading was recorded for the compound CC(C)=CCC[C@@H](C)[C@@H]1CC[C@]2(C)C(=O)[C@]3(CC[C@@]12C)[C@@H](O)CC1C(C)(C)[C@@H](O)CC[C@@]13C (stereo partly drawn) ?
5.95

* * *

molecular target: mouse 11β-HSD1 (Mus musculus); construct: the full-length cDNAs of human or marine 11β-HSD1 and 11β-HSD2 were isolated from the cDNA libraries; made in house; host or cells: HEK-293 (stably transfected, pcDNA3); microsomal fraction; experiment: Inhibition of mouse 11β-HSD1, scintillation proximity assay (SPA) with microsomes from transfected HEK-293 cells; assay type: biochemical; details: selectivity ratio IC50 mouse 11β-HSD2 / mouse 11β-HSD1
Sequence (P50172 whole entry): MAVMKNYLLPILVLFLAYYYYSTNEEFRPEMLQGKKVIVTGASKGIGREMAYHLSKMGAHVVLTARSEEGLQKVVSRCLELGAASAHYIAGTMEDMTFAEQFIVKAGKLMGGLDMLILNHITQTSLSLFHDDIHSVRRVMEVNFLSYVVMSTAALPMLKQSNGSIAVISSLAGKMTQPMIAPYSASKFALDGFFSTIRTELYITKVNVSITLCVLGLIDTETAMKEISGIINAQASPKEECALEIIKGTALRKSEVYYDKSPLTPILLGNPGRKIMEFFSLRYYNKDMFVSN
The following compounds are listed with their measured Mouse HSD2/HSD1 values.

# count of solved cases: 5
C=C(CC[C@](C)(O)[C@@H]1CC[C@]2(C)C3CCC4C(C)(C)[C@@H](O)CC[C@]4(C)C3CC[C@@]12C)C(C)C (stereo partly drawn) [Compound 1, Euphane-3β,20-dihydroxy-24-ene]: >12748
C[C@H](C/C=C/C(C)(C)O)[C@@H]1CC[C@]2(C)C3=C(CC[C@@]12C)[C@@]1(C)CC[C@H](O)C(C)(C)C1CC3 (stereo partly drawn) [Compound 6, (20R,23E)-Eupha-8,23-diene-3β,25-diol]: >3393
CC(C)=CCCC(C)C1CCC2(C)C3=C(CCC12C)C1(C)CCC(O)C(C)(C)C1CC3=O (stereo not drawn): >74850
CC(C)=CCC[C@@H](C)[C@@H]1CC[C@]2(C)C3=C(CC[C@@]12C)[C@@]1(C)CC[C@H](O)C(C)(C)[C@@H]1CC3: >12419
CC(C)=CCC[C@@H](C)[C@@H]1CC[C@]2(C)C(=O)[C@]3(CC[C@@]12C)[C@@H](O)CC1C(C)(C)[C@@H](O)CC[C@@]13C (stereo partly drawn): >928

Which Mouse HSD2/HSD1 reading was recorded for the compound C=C(C)[C@@H](O)CC[C@@H](C)[C@@H]1CC[C@]2(C)C3=C(CC[C@@]12C)[C@@]1(C)CC[C@H](O)C(C)(C)C1CC3 (stereo partly drawn) [Compound 5, (24R)-Eupha-8,25-diene-3β,24-diol] ?
>20218
